Read-out: Pselectin, SELP (gene 6403)
Assay: BSK_4H_Pselectin: BioMAP Diversity Plus: 4H Assay for Pselectin Biomarker Activity (AID 2283026)
Conditions: primary human endothelial cells (HUVEC); actives raise or lower the signal
Procedure: BSK_4H is a cell-based, multiplexed-readout assay that uses umbilical vein endothelium, a human vascular primary cell, with measurements taken at 24 hours after chemical dosing in a 96-well plate.BSK_4H_Pselectin is an assay component measured in the BSK_4H assay. It measures P-Selectin antibody related to regulation of gene expression using ELISA technology.Data from the assay component BSK_4H_Pselectin was analyzed into 1 assay endpoint. […]
Active and inactive are the calls of the source. The calls were made as follows: active = hit-call score of the fitted dose curve at least 0.9, where 1 is the maximum; inactive = score below 0.9.
Parameter Measured: AC50

> print(dat)
                                    compound  parameter.measured            result
 1            COP(=S)(OC)Oc1nc(Cl)c(Cl)cc1Cl                AC50    20 µM (active)
 2  CC(C)(C)c1ccc(CSc2cnn(C(C)(C)C)c(=O)c2Cl)cc1                AC50  11.1 µM (active)
 3  COc1cnc(OC)n2nc(NS(=O)(=O)c3c(OCC(F)F)cccc3C(F)(F)F)nc12                AC50          inactive
 4                      CNC(=O)ON=CC(C)(C)SC                AC50          inactive
 5                 COC(=O)C=C(C)OP(=O)(OC)OC                AC50          inactive
 6  Cc1c(F)c(F)c(COC(=O)C2C(/C=C(\Cl)C(F)(F)F)C2(C)C)c(F)c1F (centres undefined)                AC50          inactive
 7  CC(C)C1(C)N=C(c2nc3ccccc3cc2C(=O)O)NC1=O (centres undefined)                AC50          inactive
 8                      O=C(O)c1nc(Cl)ccc1Cl                AC50          inactive
 9  N#CC(CCc1ccc(Cl)cc1)(Cn1cncn1)c1ccccc1 (centres undefined)                AC50          inactive
10  CCOc1cc(Oc2ccc(C(F)(F)F)cc2Cl)ccc1[N+](=O)[O-]                AC50          inactive
11                                  CNC(=S)S                AC50          inactive
12  CS/C(C)=N/OC(=O)N(C)SN(C)C(=O)O/N=C(\C)SC                AC50  19.9 µM (active)
13                CC1=C(C(=O)Nc2ccccc2)SCCO1                AC50          inactive
14                    CN(C)C(=S)SSC(=S)N(C)C                AC50    14 µM (active)
15  COc1nc(C)nc(NC(=O)NS(=O)(=O)c2ccccc2Cl)n1                AC50          inactive
16  CC(C)Oc1cc(-n2nc(C(C)(C)C)oc2=O)c(Cl)cc1Cl                AC50  29.3 µM (active)
17      CCOP(=S)(OCC)SCn1c(=O)oc2cc(Cl)ccc21                AC50  29.6 µM (active)
18  CCc1nn(C)c(C(=O)NCc2ccc(C(C)(C)C)cc2)c1Cl                AC50  26.9 µM (active)
19                        Oc1ccccc1-c1ccccc1                AC50          inactive
20  CCOC(=O)C(Cl)Cc1cc(-n2nc(C)n(C(F)F)c2=O)c(F)cc1Cl (centres undefined)                AC50          inactive
21                      CCNc1nc(Cl)nc(NCC)n1                AC50          inactive
22                     Cc1cc(Cl)ccc1OCC(=O)O                AC50          inactive
23  CCCCC(CC)COC(=O)c1ccccc1C(=O)OCC(CC)CCCC (centres undefined)                AC50  15.6 µM (active)
24        Fc1ccc(Oc2ccnc3cc(Cl)cc(Cl)c23)cc1                AC50    23 µM (active)
25  C#CCOS(=O)OC1CCCCC1Oc1ccc(C(C)(C)C)cc1 (centres undefined)                AC50  3.97 µM (active)
26          COP(N)(=O)SC (centres undefined)                AC50          inactive
27  CCON=C(CC)C1=C(O)CC(c2c(C)cc(C)cc2C)CC1=O (centres undefined)                AC50          inactive
28         CCCCNC(=O)n1c(NC(=O)OC)nc2ccccc21                AC50          inactive
29    COc1ccc(C(c2ccc(OC)cc2)C(Cl)(Cl)Cl)cc1                AC50  33.4 µM (active)

----------
assay: CCTE_Simmons_MITO_basal_resp_rate: CCTE's HepG2 Seahorse XF Respirometric Screening Assay at Basal Respiratory State, Simmons Lab (AID 2284001); conditions: actives raise or lower the signal
The source made the active and inactive calls. How the source made its calls: active means hit-call score of the fitted dose curve at least 0.9, where 1 is the maximum; inactive means score below 0.9.
Possible outcomes: Y (active), N (inactive)

> print(dat)
                                    compound  discrete.label
 1                O=C(O)COc1nc(Cl)c(Cl)cc1Cl               N
 2  CC(C)(C)c1ccc(CSc2cnn(C(C)(C)C)c(=O)c2Cl)cc1               Y
 3  C#CCOS(=O)OC1CCCCC1Oc1ccc(C(C)(C)C)cc1 (stereo not drawn)               Y
 4                          CCCCNC(=O)OCC#CI               Y
 5  CCCC1COC(Cn2cncn2)(c2ccc(Cl)cc2Cl)O1 (stereo not drawn)               Y
 6  OC(c1ccc(Cl)cc1)(c1cncnc1)c1ccccc1Cl (stereo not drawn)               N
 7  CC(C)Oc1cc(-n2nc(C(C)(C)C)oc2=O)c(Cl)cc1Cl               N
 8  CC1COC(Cn2cncn2)(c2ccc(Oc3ccc(Cl)cc3)cc2Cl)O1 (stereo not drawn)               Y
 9  COC(=O)N(OC)c1ccccc1COc1ccn(-c2ccc(Cl)cc2)n1               Y
10  N#CC(CCc1ccc(Cl)cc1)(Cn1cncn1)c1ccccc1 (stereo not drawn)               N
11                COc1nc(NC(C)C)nc(NC(C)C)n1               Y
12               O=C(Nc1ccccc1)Nc1ccnc(Cl)c1               Y
13                    N#Cc1cc(Br)c(O)c(Br)c1               Y

----------
experiment: CCTE_Shafer_MEA_acute_per_network_burst_spike_number_mean: CCTE's Neural Acute Assay for Average Number of Spikes in a Network Burst, Shafer Lab (AID 2284019);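 as to AC50: curve fitted for loss of signal so actives reduce spikes per network burst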
Activity calls are given as the source filed them. The calls were made as follows: active = hit-call score of the fitted dose curve at least 0.9, where 1 is the maximum; inactive = score below 0.9.
Parameter Measured: AC50

> print(dat)
                                    molecule            result
 1  N#CC(CCc1ccc(Cl)cc1)(Cn1cncn1)c1ccccc1 (stereo unspecified)          inactive
 2                      CNC(=O)ON=CC(C)(C)SC          inactive
 3    COc1ccc(C(c2ccc(OC)cc2)C(Cl)(Cl)Cl)cc1          inactive
 4  C=CCC1=C(C)C(OC(=O)C2C(C=C(C)C)C2(C)C)CC1=O (stereo unspecified)          inactive
 5  CC(C)(C)c1ccc(CSc2cnn(C(C)(C)C)c(=O)c2Cl)cc1  1640 nM (active)
 6  CCCN(CCC)c1c([N+](=O)[O-])cc(S(N)(=O)=O)cc1[N+](=O)[O-]          inactive
 7  CC1COC(Cn2cncn2)(c2ccc(Oc3ccc(Cl)cc3)cc2Cl)O1 (stereo unspecified)          inactive
 8  OC(c1ccc(Cl)cc1)(c1cncnc1)c1ccccc1Cl (stereo unspecified)  1620 nM (active)
 9        Fc1ccc(Oc2ccnc3cc(Cl)cc(Cl)c23)cc1          inactive
10  COC(=O)C(C)Oc1ccc(Oc2ccc(Cl)cc2Cl)cc1 (stereo unspecified)          inactive
11  COC(=O)N(OC)c1ccccc1COc1ccn(-c2ccc(Cl)cc2)n1          inactive
